- System: Y1 Binding to Glycocalicin
- Sequence (as listed by the source): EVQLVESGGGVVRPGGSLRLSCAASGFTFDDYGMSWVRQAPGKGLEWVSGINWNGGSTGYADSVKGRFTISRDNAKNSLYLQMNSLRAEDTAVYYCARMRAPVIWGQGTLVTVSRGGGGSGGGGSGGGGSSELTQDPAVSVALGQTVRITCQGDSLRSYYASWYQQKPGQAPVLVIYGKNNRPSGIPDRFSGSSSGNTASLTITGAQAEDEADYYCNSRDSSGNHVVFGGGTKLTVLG
- measurement notes: ELISA: effect of synthetic GPIbα peptides on Y1 binding to purified glycocalicin
- Parameters: species or system human
- reported conditions: peptide 0.5 μM; 0.25 μg/well Y1
No end group written: not given here.
quantity: Residual Binding of Y1 (% of baseline)

Per the record, GDEGDTDLYDYYPEEDTE [P-1, residues 268-285 of GPIbα, non-sulfated] has Residual Binding of Y1 (% of baseline) of 88 % of baseline

Per the record, TDLY*DY*Y*PEEDTE (TDLYDYYPEEDTE; not fully specified (residues 4, 6, 7); printed as TDLY*DY*Y*PEEDTE) [P-2-S, residues 273-285 of GPIbα] has Residual Binding of Y1 (% of baseline) of 78 % of baseline

Per the record, GDEGDTDLY*DY*Y*P (GDEGDTDLYDYYP; not fully specified (residues 9, 11, 12); printed as GDEGDTDLY*DY*Y*P) [P-3-S, residues 268-280 of GPIbα] has Residual Binding of Y1 (% of baseline) of 80 % of baseline

Per the record, GDEGDTDLY*DY*Y*PEEDTE (GDEGDTDLYDYYPEEDTE; not fully specified (residues 9, 11, 12); printed as GDEGDTDLY*DY*Y*PEEDTE) [P-1-S, residues 268-285 of GPIbα, Y* sulfated tyrosine] has Residual Binding of Y1 (% of baseline) of 89 % of baseline

* * *

- Test system: Y1 Binding to Glycocalicin
- measurement notes: ELISA: effect of synthetic GPIbα peptides on Y1 binding to purified glycocalicin
- Design: species or system human
- reported conditions: peptide 25 μM; 0.25 μg/well Y1
No end group written: not given here.
quantity: Residual Binding of Y1 (% of baseline)

Per the record, GDEGDTDLYDYYPEEDTE [P-1, residues 268-285 of GPIbα, non-sulfated] has Residual Binding of Y1 (% of baseline) of 71 % of baseline

Per the record, GDEGDTDLY*DY*Y*P (GDEGDTDLYDYYP; not fully specified (residues 9, 11, 12); printed as GDEGDTDLY*DY*Y*P) [P-3-S, residues 268-280 of GPIbα] has Residual Binding of Y1 (% of baseline) of 21 % of baseline

Per the record, REEGRQHFFLLEGRSSYS [negative control peptide, reference compound] has Residual Binding of Y1 (% of baseline) of 89 % of baseline

Per the record, TDLY*DY*Y*PEEDTE (TDLYDYYPEEDTE; not fully specified (residues 4, 6, 7); printed as TDLY*DY*Y*PEEDTE) [P-2-S, residues 273-285 of GPIbα] has Residual Binding of Y1 (% of baseline) of 15 % of baseline

Per the record, GDEGDTDLY*DY*Y*PEEDTE (GDEGDTDLYDYYPEEDTE; not fully specified (residues 9, 11, 12); printed as GDEGDTDLY*DY*Y*PEEDTE) [P-1-S, residues 268-285 of GPIbα, Y* sulfated tyrosine] has Residual Binding of Y1 (% of baseline) of 25 % of baseline

* * *

- System: Y1 Binding to Glycocalicin
- measurement notes: ELISA: effect of synthetic GPIbα peptides on Y1 binding to purified glycocalicin
- Set-up: species or system human
- reported conditions: peptide 2.5 μM; 0.25 μg/well Y1
No end group written: not given here.
quantity: Residual Binding of Y1 (% of baseline)

Per the record, TDLY*DY*Y*PEEDTE (TDLYDYYPEEDTE; not fully specified (residues 4, 6, 7); printed as TDLY*DY*Y*PEEDTE) [P-2-S, residues 273-285 of GPIbα] has Residual Binding of Y1 (% of baseline) of 52 % of baseline

Per the record, GDEGDTDLYDYYPEEDTE [P-1, residues 268-285 of GPIbα, non-sulfated] has Residual Binding of Y1 (% of baseline) of 94 % of baseline

Per the record, GDEGDTDLY*DY*Y*PEEDTE (GDEGDTDLYDYYPEEDTE; not fully specified (residues 9, 11, 12); printed as GDEGDTDLY*DY*Y*PEEDTE) [P-1-S, residues 268-285 of GPIbα, Y* sulfated tyrosine] has Residual Binding of Y1 (% of baseline) of 62 % of baseline

Per the record, REEGRQHFFLLEGRSSYS [negative control peptide, reference compound] has Residual Binding of Y1 (% of baseline) of 100 % of baseline

Per the record, GDEGDTDLY*DY*Y*P (GDEGDTDLYDYYP; not fully specified (residues 9, 11, 12); printed as GDEGDTDLY*DY*Y*P) [P-3-S, residues 268-280 of GPIbα] has Residual Binding of Y1 (% of baseline) of 67 % of baseline

* * *

- Test system: washed platelets
- measurement notes: Competitive FACS: effect of synthetic GPIbα peptides on Y1 binding to washed platelets
- Parameters: species or system human
- reported conditions: peptide 200 μM
No end group written: not given here.
Provide the recorded Residual Binding of Y1 (% of baseline) (Geo Mean) for the entries that follow.

Per the record, TDLY*DY*Y*PEEDTE (TDLYDYYPEEDTE; not fully specified (residues 4, 6, 7); printed as TDLY*DY*Y*PEEDTE) [P-2-S, residues 273-285 of GPIbα] has Residual Binding of Y1 (% of baseline) (Geo Mean) of 7 % of baseline

Per the record, GDEGDTDLY*DY*Y*PEEDTE (GDEGDTDLYDYYPEEDTE; not fully specified (residues 9, 11, 12); printed as GDEGDTDLY*DY*Y*PEEDTE) [P-1-S, residues 268-285 of GPIbα, Y* sulfated tyrosine] has Residual Binding of Y1 (% of baseline) (Geo Mean) of 5 % of baseline

Per the record, GDEGDTDLYDYYPEEDTE [P-1, residues 268-285 of GPIbα, non-sulfated] has Residual Binding of Y1 (% of baseline) (Geo Mean) of 87 % of baseline

Per the record, GDEGDTDLY*DY*Y*P (GDEGDTDLYDYYP; not fully specified (residues 9, 11, 12); printed as GDEGDTDLY*DY*Y*P) [P-3-S, residues 268-280 of GPIbα] has Residual Binding of Y1 (% of baseline) (Geo Mean) of 26 % of baseline

Data origin, for the record: patent US20040001822A1
